- Tested on: HOP-62 complex spheroids with HUVEC/MSC, viability
- method_notes: Anticancer human tumor HOP-62 cell line growth inhibition [RAS];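 further: spheroids exposed to agents for seven days before readout; 100% = DMSO vehicle control viability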
- condition_details: second compound 0.316 µM; first compound 0.01 µM; hits give low values
Below is a list of entries, each paired with its recorded viability, T/C value.
readout_type: viability, T/C (%)

CCN1CCN(Cc2ccc(Nc3ncc(F)c(-c4cc(F)c5nc(C)n(C(C)C)c5c4)n3)nc2)CC1 + C=CC(=O)N1CCN(c2nc(OCC3CCCN3C)nc3c(F)c(-c4nc(N)cc(C)c4C(F)(F)F)c(Cl)cc23)C(C)C1	70.6
C=CC(=O)N1CCN(c2nc(OCC3CCCN3C)nc3c(F)c(-c4nc(N)cc(C)c4C(F)(F)F)c(Cl)cc23)C(C)C1 (configuration not stated) + C#Cc1c(F)ccc2cc(O)cc(-c3ncc4c(N5CC6CCC(C5)N6)nc(OCC56CCCN5CC(F)C6)nc4c3F)c12	68.9
